Numbers sourced from PubChem BioAssay (NCI).

Tested on: MOLT-4 leukemia
Assay: NCI tumour cell line growth inhibition, 48 h; in the data active = GI50 below about 0.43 µM; inactive = the rest
Mark one answer only. Choices: Yes = active, No = inactive

Query: recorded result category for "O=C(NCCN1CCOCC1)c1cc2c(Oc3ccc(NC(=O)C4(C(=O)Nc5ccc(F)cc5)CC4)cc3)ccnc2[nH]1" in this test No

// param item: "OC[C@H]1C[C@](O)(c2ccccc2Cl)[C@@H](c2ccccc2Cl)O1" ; yields the recorded call No

Assay result, entry "O=C(O)CCCCCNCc1cc2cc3c(cc2c2cc(OCc4ccccc4)ccc12)OCO3" — outcome? No

Could you please tell me the result logged for "O=C1c2ccc3c4c(ccc(c24)C(=O)N1CCCCO)C(=O)N(CCCCO)C3=O" in this assay? No

Lab log entry: COc1cc(F)c(F)c(Nc2ccc(I)cc2F)c1NS(=O)(=O)C1(CC(O)CO)CC1 (centres undefined) — outcome as called in the assay? No

Per the records of this test, what outcome belongs to "COc1cc(OC)c(/C=C/S(=O)(=O)Cc2ccc(OC)c(N)n2)c(OC)c1" ? Yes

Test call for this compound, please: COc1cc2c(cc1O)CCN[C@@]21CS[C@H]2c3c(OC(C)=O)c(C)c4c(c3C(COC1=O)N1C2C2NC(Cc3cc(C)c(OC)c(O)c32)[C@@H]1O)OCO4 (some centres undefined) No

State the result this test recorded for "CC/C(=C/c1ccc(OC)cc1)[N+](=O)[O-]" . No

What is the recorded call for this compound in the test? "O=C(O)CN(CCN(CC(=O)O)CC(=O)O)CC(=O)O.[Cu+2].[Na+]" No

---

Test system: SNB-19 CNS
Test: NCI tumour cell line growth inhibition, 48 h; in the data active = GI50 below about 0.43 µM; inactive = the rest
Outcomes you can answer with include only these: yes for active, no for inactive

Call for entry "CCc1ccc([OH2+])c(C(=O)[O-])c1.CCc1ccc([OH2+])c(C(=O)[O-])c1.CCc1ccc([OH2+])c(C(=O)[O-])c1.CCc1ccc([OH2+])c(C(=O)[O-])c1.[Cu+2].[Cu+2]" : no

Please share the test call associated with "COc1ccc([C@@H]2[C@@H](Cl)C(=O)N2c2cc(OC)c(OC)c(OC)c2)cc1C" . yes

Please let me know the test result on file for "CC(C)(C)n1cc(-c2ccnc(NCCCNS(=O)(=O)c3cccc4ccccc34)c2)c(-c2cccc(O)c2)n1" . no

What did the test return for "CCCCCCCCCC(=O)Oc1ccc(/C(=C(/C)c2ccccc2)c2ccc(OCCN3CCCC3)cc2)cc1" ? no

---

Test system: SF-268 CNS
Experiment: NCI tumour cell line growth inhibition, 48 h
endpoint.label: TGI (µM)
Write the value in µM as a bare number.

Short answer please: TGI, SF-268 CNS, entry "O=C1c2ccccc2C(=O)c2c1ccc1c3ccccc3n(-c3ccccc3)c21" 54

Form: Entry = CCCCCn1sc(=O)n(Cc2ccc(CNC(=O)C(C)c3ccc(CC(C)C)cc3)cc2)c1=O (centres undefined) | System = SF-268 CNS | TGI = ____ 2.96

---

Test system: SK-MEL-28 melanoma
Test: NCI tumour cell line growth inhibition, 48 h
endpoint.label: TGI

// TGI lookup, key: COC1=CC(=O)C2(C=C1OC)OC[C@H]1Oc3c(ccc4c3C=CC(C)(C)O4)C(=O)[C@H]12 (stereo partly drawn) > 100 µM

Data request, read-out TGI, for "CCOC(=O)CN(CC)C(=O)NC12CC3CC(CC(C3)C1)C2" > 750 µM

# input molecule: "COc1ccc2c(c1O)[C@@]13CCCC=C1[C@@H](C2)N(C)CC3" ; wanted: its TGI > 100 µM

Given the entry CCOC(=O)C(=O)CC(=O)C(Br)C(Br)c1ccc(Cl)cc1 (stereo not drawn) , report its measured TGI. 72.3 µM

I have this molecule here, COc1ccc(N2C(=O)[C@@H]3[C@@H]4CC(C)CC[C@@H]4c4c([nH]c5ccccc45)[C@@H]3C2=O)cc1 (stereo partly drawn) , and I need its recorded TGI. > 100 µM

Any idea what TGI was measured for O=C(NCC(O)COc1ccccc1)c1ccccc1O (stereo not drawn) ? > 100 µM

Consider the molecule shown here: O=C(CC1(O)C(=O)Nc2ccc(Cl)cc21)c1ccc(C(=O)NCC2CCC3(CC2)OOC2(CCCCC2)OO3)cc1 (stereo not drawn) What is its recorded TGI? 17.9 µM

Query (molecule): "O=[N+]([O-])C(/C=C(\Cl)[N+](=O)[O-])=C(N1CCOCC1)N1CCOCC1" ; field requested: TGI > 100 µM

Given the molecule O=C(CC1(O)C(=O)Nc2ccccc21)c1cccc(O)c1 (stereo not drawn) , what is its reported TGI? > 100 µM

Consider the molecule shown here: "CCCNC(=O)c1cc(OC)c(OC)cc1NC(=O)C12CC3CC(CC(C3)C1)C2" What is its recorded TGI? 32.6 µM

So what does the record say about TGI for "CN(C)CCCn1c(-c2ccc(Br)cc2)csc1=Nc1ccccc1" ? 53.3 µM

Requested read-out: TGI. Entry: COc1oc(C2C/C(=C/C(C)=C/C(C)=C/C(C)=C/c3ccc([N+](=O)[O-])cc3)CO2)c(C)c(=O)c1C (stereo not drawn) > 60.5 µM

// lookup TGI for "COc1ccc(Cl)cc1NC(=O)O/N=C(\Cl)C(C)C" 42.9 µM

Using the record for "Cc1[nH]c2c(C)c3c([nH]c4ccc(Cl)cc43)c(C)c2c(=O)c1C" , report its TGI. > 100 µM

I am curious: what TGI value has been reported for Cc1ccc([N+](=O)[O-])cc1S(=O)(=O)Nc1ccc(C2=NN(S(=O)(=O)c3cc([N+](=O)[O-])ccc3C)C(c3ccccc3O)C2)cc1 (stereo not drawn) ? > 100 µM

Can you look up the measured TGI of "O=C(O)CN(CCN(CC(=O)O)CC(=O)O)CC(=O)O.[Cu+2].[Na+]" for me? > 100 µM

State the recorded TGI for this entry: O=C1c2ccccc2-c2cn(Cc3ccccc3)c3cccc(c23)C1c1cccnc1 (stereo not drawn) > 50 µM

Request the reported TGI associated with CC1(C)OCC(/C=C\C(O)CC2(C)OCCO2)CO1 (stereo not drawn) > 100 µM

Recorded TGI of "CC/C(CC(=O)CCC(=O)Nc1ccc(C)c(C)c1)=N\NC(=O)c1cc2ccccc2cc1O" , please. 46.9 µM

Tell me the measured TGI of "CCN(CC)C(=O)Cc1[nH][nH]c(=O)c1C(=O)N(CC)CC" , please. > 100 µM

Would you kindly share the measured TGI for "Cc1nc2ccccc2c(=O)n1/N=C(\N=Nc1cc(Cl)ccc1Cl)c1ccc(N(C)C)cc1" ? > 100 µM

TGI for "O=c1[nH]nc(-c2cccc([N+](=O)[O-])c2)[nH]1" ? > 100 µM

If you can, please state the reported TGI value of "Cc1cccc(NC(=S)NNC(=O)c2cc(-c3ccccc3)nc3ccccc23)c1" . > 100 µM

Which value of TGI has been reported for "CC(C)(C)n1cc(-c2ccnc(NCCCNS(=O)(=O)c3cccc4ccccc34)c2)c(-c2cccc(O)c2)n1" in the records? 3.24 µM

Param item = "C=C(CN1CCN(c2cc(C(F)(F)F)cc(C(F)(F)F)c2)CC1)c1ccc(C(=O)Nc2ccccc2N)cc1" ; retrieve measured TGI. 15.9 µM

# TGI lookup, item COc1cc([C@H]2OC[C@@H]3C(c4cc(OC)c5c(c4)OCO5)OC[C@H]23)cc(OC)c1OC (stereo partly drawn) > 100 µM

What value of measured TGI is listed for COc1cccc(C2c3cc4c(cc3OC(NNS(=O)(=O)c3ccc(C)cc3)C2C)OCO4)c1O (stereo not drawn) ? 78.8 µM

Consider the molecule "Cc1cc2nc3c(N)nn(CCCN(C)C)c3nc2cc1C" and give its measured TGI. > 100 µM

Quick one: TGI for "COc1ccc(/C=N/n2c(-c3ccccc3)n[nH]c2=O)c(OC)c1" ? > 100 µM

Quick one: TGI of "CC[C@@]1(O)C(=O)OCc2c1cc1n(c2=O)Cc2c-1nc1ccc(N)cc1c2CC[Si](C)(C)C" ? 13.8 µM

I have this molecule here, COc1cc2c(c(O)c1OC)C(O)C1CCC(=O)N1C2c1ccc2c(c1)OCO2 (stereo not drawn) , and I need its recorded TGI. > 100 µM

Given the entry Cc1ccc(NC(c2ccccc2)P(=O)(c2ccccc2)c2ccccc2)cc1 (stereo not drawn) , report its measured TGI. > 100 µM

Record request: TGI value, item Cc1cc2c3ccccc3n3c2c2c1OC1(C)CCC(C2C1)C3(C)C (stereo not drawn) > 25 µM

Look up TGI: "Cc1n[nH]c(=O)c2c3c([nH]c12)-c1ccccc1C3" > 100 µM

Record request: TGI value, item "CC(=O)[CH-]C(=O)c1ccccc1.CC(=O)[CH-]C(=O)c1ccccc1.Cl.[O-]CCc1ccccn1.[O-]CCc1ccccn1.[Ti+4]" 55.1 µM

Returns the measured TGI for the input molecule. Input: "CO[C@H]1C[C@H](O[C@H]2CC[C@@]3(C)[C@H](CC[C@@H]4[C@@H]3CC[C@]3(C)[C@@H](C5=CC(=O)OC5)CC[C@]43O)C2)O[C@H](C)[C@H]1O" 0.137 µM

Reported TGI for "O=C(O)CCCCCNCc1cc2cc3c(cc2c2cc(OCc4ccccc4)ccc12)OCO3" : what is it? 3.33 µM

Record request: TGI value, item NC1(C(=O)O)CCC(C(=O)O)CC1 (stereo not drawn) > 100 µM
